The values you see were collected from ChEMBL document CHEMBL2062386.

Reported MIC values for a set of molecules
test system: Enterococcus faecium; assay: Antibacterial activity against Enterococcus faecium 7130724 by broth microdilution method; format: functional
assay.endpoint: MIC (µg/mL)

[
  {
    "molecule": "CNC(=O)C[C@@H]1NC(=O)c2csc(n2)-c2ccc(-c3nc(N(CCCCCCC(=O)O)C(=O)O[C@H]4CC[C@H](C(=O)O)CC4)cs3)nc2-c2csc(n2)-c2csc(n2)[C@H]([C@@H](O)c2ccccc2)NC(=O)CNC(=O)c2nc(sc2COC)[C@H](C(C)C)NC(=O)c2nc1sc2C",
    "data.value": 0.125
  },
  {
    "molecule": "CNC(=O)C[C@@H]1NC(=O)c2csc(n2)-c2ccc(-c3nc(N(CCCCC(=O)O)C(=O)OC(CCCCC(=O)O)CCC(=O)O)cs3)nc2-c2csc(n2)-c2csc(n2)[C@H]([C@@H](O)c2ccccc2)NC(=O)CNC(=O)c2nc(sc2COC)[C@H](C(C)C)NC(=O)c2nc1sc2C (some centres not stated)",
    "data.value": 32
  }
]

----------
Reported inhibition at 2 µM values for a set of compounds
tested on: Escherichia coli; experiment: Inhibition of protein synthesis in Escherichia coli S30 extract at 2 uM after 75 mins by luciferase based luminescence assay relative to GE2270A; type: functional
assay.endpoint: inhibition at 2 µM (%)

[
  {
    "compound": "CNC(=O)C[C@@H]1NC(=O)c2csc(n2)-c2ccc(-c3nc(N(CCCC(=O)O)C(=O)c4ccc(C(=O)O)cn4)cs3)nc2-c2csc(n2)-c2csc(n2)[C@H]([C@@H](O)c2ccccc2)NC(=O)CNC(=O)c2nc(sc2COC)[C@H](C(C)C)NC(=O)c2nc1sc2C",
    "data.value": 30
  },
  {
    "compound": "CNC(=O)C[C@@H]1NC(=O)c2csc(n2)-c2ccc(-c3nc(N(CCCCC(=O)O)C(=O)O[C@]4(CCCCC(=O)O)CC[C@@H](C(=O)O)CC4)cs3)nc2-c2csc(n2)-c2csc(n2)[C@H]([C@@H](O)c2ccccc2)NC(=O)CNC(=O)c2nc(sc2COC)[C@H](C(C)C)NC(=O)c2nc1sc2C",
    "data.value": 50
  },
  {
    "compound": "CNC(=O)C[C@@H]1NC(=O)c2csc(n2)-c2ccc(-c3nc(N(CCCCC(=O)O)C(=O)OCCC(CCCCC(=O)O)C(=O)O)cs3)nc2-c2csc(n2)-c2csc(n2)[C@H]([C@@H](O)c2ccccc2)NC(=O)CNC(=O)c2nc(sc2COC)[C@H](C(C)C)NC(=O)c2nc1sc2C (some centres not stated)",
    "data.value": 50
  },
  {
    "compound": "CNC(=O)C[C@@H]1NC(=O)c2csc(n2)-c2ccc(-c3nc(N(CCCCC(=O)O)C(=O)O[C@H]4CC[C@H](C(=O)O)CC4)cs3)nc2-c2csc(n2)-c2csc(n2)[C@H]([C@@H](O)c2ccccc2)NC(=O)CNC(=O)c2nc(sc2COC)[C@H](C(C)C)NC(=O)c2nc1sc2C",
    "data.value": 67
  },
  {
    "compound": "CNC(=O)C[C@@H]1NC(=O)c2csc(n2)-c2ccc(-c3nc(N(CCCC(=O)O)C(=O)CCCC(=O)O)cs3)nc2-c2csc(n2)-c2csc(n2)[C@H]([C@@H](O)c2ccccc2)NC(=O)CNC(=O)c2nc(sc2COC)[C@H](C(C)C)NC(=O)c2nc1sc2C",
    "data.value": 30
  },
  {
    "compound": "CNC(=O)C[C@@H]1NC(=O)c2csc(n2)-c2ccc(-c3nc(N(CCCCC(=O)O)C(=O)OCc4ccc(C(=O)O)cn4)cs3)nc2-c2csc(n2)-c2csc(n2)[C@H]([C@@H](O)c2ccccc2)NC(=O)CNC(=O)c2nc(sc2COC)[C@H](C(C)C)NC(=O)c2nc1sc2C",
    "data.value": 67
  },
  {
    "compound": "CNC(=O)C[C@@H]1NC(=O)c2csc(n2)-c2ccc(-c3nc(N(CCCCC(=O)O)C(=O)N4CCC(C(=O)O)CC4)cs3)nc2-c2csc(n2)-c2csc(n2)[C@H]([C@@H](O)c2ccccc2)NC(=O)CNC(=O)c2nc(sc2COC)[C@H](C(C)C)NC(=O)c2nc1sc2C",
    "data.value": 30
  }
]

----------
Reported inhibition at 2 µM values for a set of compounds
system: Escherichia coli; assay: Inhibition of protein synthesis in Escherichia coli S30 extract at 2 uM after 75 mins by luciferase based luminescence assay relative to GE2270A; assay type: functional
assay.endpoint: inhibition at 2 µM (%)

[
  {
    "compound": "CNC(=O)C[C@@H]1NC(=O)c2csc(n2)-c2ccc(-c3nc(NC(=O)CC[C@@H](CC(=O)O)C(=O)O)cs3)nc2-c2csc(n2)-c2csc(n2)[C@H]([C@@H](O)c2ccccc2)NC(=O)CNC(=O)c2nc(sc2COC)[C@H](C(C)C)NC(=O)c2nc1sc2C",
    "data.value": 30
  },
  {
    "compound": "CNC(=O)C[C@@H]1NC(=O)c2csc(n2)-c2ccc(-c3nc(N(CCCCC(=O)O)C(=O)OCC4CC4C(=O)O)cs3)nc2-c2csc(n2)-c2csc(n2)[C@H]([C@@H](O)c2ccccc2)NC(=O)CNC(=O)c2nc(sc2COC)[C@H](C(C)C)NC(=O)c2nc1sc2C (some centres undefined)",
    "data.value": 67
  },
  {
    "compound": "CNC(=O)C[C@@H]1NC(=O)c2csc(n2)-c2ccc(-c3nc(N(CCCCC(=O)O)C(=O)N[C@H]4CC[C@H](C(=O)O)CC4)cs3)nc2-c2csc(n2)-c2csc(n2)[C@H]([C@@H](O)c2ccccc2)NC(=O)CNC(=O)c2nc(sc2COC)[C@H](C(C)C)NC(=O)c2nc1sc2C",
    "data.value": 30
  },
  {
    "compound": "CNC(=O)C[C@@H]1NC(=O)c2csc(n2)-c2ccc(-c3nc(N(CCCC(=O)O)C(=O)CCCCC(=O)O)cs3)nc2-c2csc(n2)-c2csc(n2)[C@H]([C@@H](O)c2ccccc2)NC(=O)CNC(=O)c2nc(sc2COC)[C@H](C(C)C)NC(=O)c2nc1sc2C",
    "data.value": 30
  }
]

----------
tested on: Enterococcus faecium; assay: Antibacterial activity against Enterococcus faecium 7130724 by broth microdilution method; assay type: functional
assay.endpoint: MIC (µg/mL)

[
  {
    "mol.smiles": "CNC(=O)C[C@@H]1NC(=O)c2csc(n2)-c2ccc(-c3nc(N(CCCCC(=O)O)C(=O)OCc4ccc(C(=O)O)cn4)cs3)nc2-c2csc(n2)-c2csc(n2)[C@H]([C@@H](O)c2ccccc2)NC(=O)CNC(=O)c2nc(sc2COC)[C@H](C(C)C)NC(=O)c2nc1sc2C",
    "data.value": 1
  },
  {
    "mol.smiles": "CNC(=O)C[C@@H]1NC(=O)c2csc(n2)-c2ccc(-c3nc(N(CCCCC(=O)O)C(=O)O[C@H]4CC[C@](CCCCC(=O)O)(C(=O)O)CC4)cs3)nc2-c2csc(n2)-c2csc(n2)[C@H]([C@@H](O)c2ccccc2)NC(=O)CNC(=O)c2nc(sc2COC)[C@H](C(C)C)NC(=O)c2nc1sc2C",
    "data.value": 1
  }
]

----------
tested on: Escherichia coli; test: Inhibition of protein synthesis in Escherichia coli S30 extract at 2 uM after 75 mins by luciferase based luminescence assay relative to GE2270A; assay type: functional
assay.endpoint: inhibition at 2 µM (%)

[
  {
    "mol.smiles": "CNC(=O)C[C@@H]1NC(=O)c2csc(n2)-c2ccc(-c3nc(N(C)C(=O)CCCC(=O)O)cs3)nc2-c2csc(n2)-c2csc(n2)[C@H]([C@@H](O)c2ccccc2)NC(=O)CNC(=O)c2nc(sc2COC)[C@H](C(C)C)NC(=O)c2nc1sc2C",
    "assay.endpoint": "inhibition at 2 µM",
    "data.value": 30
  },
  {
    "mol.smiles": "CNC(=O)C[C@@H]1NC(=O)c2csc(n2)-c2ccc(-c3nc(N(CCCCC(=O)O)C(=O)C[C@H]4CC[C@H](C(=O)O)CC4)cs3)nc2-c2csc(n2)-c2csc(n2)[C@H]([C@@H](O)c2ccccc2)NC(=O)CNC(=O)c2nc(sc2COC)[C@H](C(C)C)NC(=O)c2nc1sc2C",
    "assay.endpoint": "inhibition at 2 µM",
    "data.value": 30
  }
]

----------
tested on: Escherichia coli; assay: Inhibition of protein synthesis in Escherichia coli S30 extract at 2 uM after 75 mins by luciferase based luminescence assay relative to GE2270A; format: functional
Reported inhibition at 2 µM values for a set of compounds

[
  {
    "compound": "CNC(=O)C[C@@H]1NC(=O)c2csc(n2)-c2ccc(-c3nc(N(CCCCC(CCC(=O)O)C(=O)O)C(=O)O[C@H]4CC[C@H](C(=O)O)CC4)cs3)nc2-c2csc(n2)-c2csc(n2)[C@H]([C@@H](O)c2ccccc2)NC(=O)CNC(=O)c2nc(sc2COC)[C@H](C(C)C)NC(=O)c2nc1sc2C (some centres not stated)",
    "inhibition at 2 µM": "50%"
  },
  {
    "compound": "CNC(=O)C[C@@H]1NC(=O)c2csc(n2)-c2ccc(-c3nc(C4=N[C@H](C(=O)N5CCC[C@H]5C(N)=O)CO4)cs3)nc2-c2csc(n2)-c2csc(n2)[C@H]([C@@H](O)c2ccccc2)NC(=O)CNC(=O)c2nc(sc2COC)[C@H](C(C)C)NC(=O)c2nc1sc2C",
    "inhibition at 2 µM": "30%"
  }
]
